I'd be grateful if you could share measured IC50 for these entries.
Target: Protein Wnt-3a (Mus musculus, UniProt P27467)
Sequence (P27467 whole entry): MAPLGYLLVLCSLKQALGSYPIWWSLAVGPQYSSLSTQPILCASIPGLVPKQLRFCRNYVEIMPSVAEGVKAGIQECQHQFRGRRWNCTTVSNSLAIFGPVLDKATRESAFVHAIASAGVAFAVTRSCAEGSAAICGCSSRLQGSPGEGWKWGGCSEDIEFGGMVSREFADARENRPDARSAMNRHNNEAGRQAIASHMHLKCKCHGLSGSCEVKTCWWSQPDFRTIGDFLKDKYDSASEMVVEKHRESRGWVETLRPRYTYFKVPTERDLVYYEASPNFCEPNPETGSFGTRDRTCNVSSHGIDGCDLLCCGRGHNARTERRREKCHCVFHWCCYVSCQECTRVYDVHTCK
Assay: antagonism of Wnt3a pathway luciferase reporter – Wnt-LIGHT cells, luminescence, selectivity assay for Gli-SUFU antagonist project, dose response (AID 651570);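 further: Wnt-LIGHT reporter cells stimulated with conditioned medium from Wnt3a-producing cells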
Assay type: functional
Settings: read-out: IC50_Mean
Active and inactive are the calls of the source.

Previously resolved entries follow.
chemical-smiles	observed
CCCCc1ccc(NC(=O)C(=O)NCCN2CCN(Cc3ccc([N+](=O)[O-])cc3)CC2)cc1	1800 nM (active)
COc1ccccc1-c1c(-c2ccc(O)cc2O)n[nH]c1C(F)(F)F	2070 nM (active)
CN(Cc1nccs1)C(=O)c1cc(COc2cccc3cnccc23)on1	1300 nM (active)

Input line: Give the measured IC50 for Cc1sc2ncnc(N3CCN(S(=O)(=O)c4ccc(C(C)(C)C)cc4)CC3)c2c1C
Output line: 6860 nM (active)

---

I'd be grateful if you could share measured IC50 for these entries.
Biological target: Carboxy-terminal domain RNA polymerase II polypeptide A small phosphatase 1 (Homo sapiens)
Sequence (Q9GZU7 whole entry, the tested form may be a part): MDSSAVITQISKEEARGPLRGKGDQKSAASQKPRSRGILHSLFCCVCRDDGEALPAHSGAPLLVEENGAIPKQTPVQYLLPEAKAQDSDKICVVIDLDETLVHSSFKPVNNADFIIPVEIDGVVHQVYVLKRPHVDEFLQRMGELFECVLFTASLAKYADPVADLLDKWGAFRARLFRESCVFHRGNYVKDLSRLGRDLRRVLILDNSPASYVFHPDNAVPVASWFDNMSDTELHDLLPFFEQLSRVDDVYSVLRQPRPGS
Assay: CTDSP1 inhibitors, concentration-response, biochemical, absorbance readout, ultra-high-throughput screen actives (AID 540297)
Assay type: functional
Calls of active or inactive are those of the source.

Previously resolved entries follow.
chemical-smiles	IC50
COc1cccc(C(=O)OCC(=O)Nc2sc3c(c2C(N)=O)CCC3)c1O	3.73 µM (active)
O=C(Nc1cccnc1Cl)c1ccc(=O)oc1	17.8 µM (active)
CCN(CC)S(=O)(=O)c1ccc(OC)c(NC(=O)Cc2cccs2)c1	4.5 µM (active)
O=C(C=C1SCCS1)/C=C/c1ccco1	7.85 µM (active)
Cc1cc(C(=O)O)ccc1-c1ccc(/C=C2\NC(=O)N(Cc3ccc(F)cc3)C2=O)o1	3.42 µM (active)

Provide IC50 for all items below, preserving their order.
1. CCOc1ccc(NC(=O)c2cc3cc4ccc(OC)cc4nc3o2)cc1
2. N#C/C(=C\c1ccc(OC(=O)c2ccc(Br)s2)cc1)c1nc2ccccc2[nH]1
3. O=C(Cn1c(=O)n(Cc2ccco2)c(=O)c2c3c(sc21)CCCCC3)Nc1ccccc1
4. NC(=S)n1[nH]c(-c2ccc([N+](=O)[O-])cc2)c(/N=N/c2ccccc2[N+](=O)[O-])c1=O
5. Cc1cccc(C(=O)Oc2ccc(/C=N/NC(=O)c3cc(O)cc(O)c3)cc2)c1

Output line:
6.92 µM (active)
1.78 µM (active)
4.93 µM (active)
1.46 µM (active)
4.14 µM (active)

---

Molecular target: Luciferin 4-monooxygenase (Photinus pyralis)
Sequence (P08659 whole entry): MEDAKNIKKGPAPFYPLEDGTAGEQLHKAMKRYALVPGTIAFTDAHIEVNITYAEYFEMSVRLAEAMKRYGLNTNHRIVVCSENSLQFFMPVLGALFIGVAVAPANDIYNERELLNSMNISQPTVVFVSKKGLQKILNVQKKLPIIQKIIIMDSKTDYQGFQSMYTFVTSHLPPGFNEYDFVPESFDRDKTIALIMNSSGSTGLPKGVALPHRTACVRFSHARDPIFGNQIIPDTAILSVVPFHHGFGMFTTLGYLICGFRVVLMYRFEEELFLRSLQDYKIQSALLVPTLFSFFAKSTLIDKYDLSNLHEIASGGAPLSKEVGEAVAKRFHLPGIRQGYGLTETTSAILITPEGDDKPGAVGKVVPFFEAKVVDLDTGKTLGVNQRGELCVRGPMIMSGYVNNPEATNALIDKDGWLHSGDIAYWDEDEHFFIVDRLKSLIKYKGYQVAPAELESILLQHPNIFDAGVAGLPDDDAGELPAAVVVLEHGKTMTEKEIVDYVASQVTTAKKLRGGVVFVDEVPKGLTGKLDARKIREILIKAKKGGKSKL
Assay: inhibition of purified Photinus pyralis luciferase – biochemical, luminescence, dose response (AID 1891)
Calls of active or inactive are those of the source.
I'd be grateful if you could share measured EC50 for these entries.

compound	measured-target	observed
COc1cc(SC)ccc1C(=O)NNC(=O)c1cc(C)oc1C	Luciferin 4-monooxygenase (Photinus pyralis)	1.4 µM (active)
COc1cc2c(cc1OC)-c1cc(N3CCc4ccccc43)nc(=O)n1CC2	Luciferin 4-monooxygenase (Photinus pyralis)	> 112 µM (not active)

Provide EC50 for all items below, preserving their order.
1. CCCCCn1c2c(c(=N)c3ccccc31)CCC2
2. O=C1NC(=O)C2(CCC(C(=O)O)C2)N1 (stereo not given)

Output line:
1. > 112 µM (not active)
2. > 112 µM (not active)

Input line: Give the measured EC50 for CCOC(=O)c1cc2cc([N+](=O)[O-])ccc2oc1=O
Output line: > 112 µM (not active)
